Ref: the supplement of paper PMC11246515

- EXPERIMENT SUMMARY: total protein half-life in vivo (active degradation + dilution); higher = more stable protein
- EXPERIMENTAL PARAMETERS: wild type E. coli NCM3722; growth: C-lim chemostat; doubling time 6 h
QUANTITY: total protein half-life in vivo (h)
Just the number in h, nothing appended.

Could you share which total protein half-life in vivo value was measured for "MNFLAHLHLAHLAESSLSGNLLADFVRGNPEESFPPDVVAGIHMHRRIDVLTDNLPEVREAREWFRSETRRVAPITLDVMWDHFLSRHWSQLSPDFPLQEFVCYAREQVMTILPDSPPRFINLNNYLWSEQWLVRYRDMDFIQNVLNGMASRRPRLDALRDSWYDLDAHYDALETRFWQFYPRMMAQASRKAL" ?
4.23

Continuing:
Could you share which total protein half-life in vivo value was measured for MTLKELLVGFGTQVRSIWMIGLHAFAKRETRMYPEEPVYLPPRYRGRIVLTRDPDGEERCVACNLCAVACPVGCISLQKAETKDGRWYPEFFRINFSRCIFCGLCEEACPTTAIQLTPDFEMGEYKRQDLVYEKEDLLISGPGKYPEYNFYRMAGMAIDGKDKGEAENEAKPIDVKSLLP [P0AFD6] ?
6.25

What do you have for MKIAILSRDGTLYSCKRLREAAIQRGHLVEILDPLSCYMNINPAASSIHYKGRKLPHFDAVIPRIGTAITFYGTAALRQFEMLGSYPLNESVAIARARDKLRSMQLLARQGIDLPVTGIAHSPDDTSDLIDMVGGAPLVVKLVEGTQGIGVVLAETRQAAESVIDAFRGLNAHILVQEYIKEAQGCDIRCLVVGDEVVAAIERRAKEGDFRSNLHRGGAASVASITPQEREIAIKAARTMALDVAGVDILRANRGPLVMEVNASPGLEGIEKTTGIDIAGKMIRWIERHATTEYCLKTGG [P0C0U4] ?
5.3

What do you have for "MIKWPWKVQESAHQTALPWQEALSIPLLTCLTEQEQSKLVTLAERFLQQKRLVPLQGFELDSLRSCRIALLFCLPVLELGLEWLDGFHEVLIYPAPFVVDDEWEDDIGLVHNQRIVQSGQSWQQGPIVLNWLDIQDSFDASGFNLIIHEVAHKLDTRNGDRASGVPFIPLREVAGWEHDLHAAMNNIQEEIELVGENAASIDAYAASDPAECFAVLSEYFFSAPELFAPRFPSLWQRFCQFYQQDPLQRLHHANDTDSFSATNVH" ?
1.87

What do you have for MVSRYVPDMGDLIWVDFDPTKGSEQAGHRPAVVLSPFMYNNKTGMCLCVPCTTQSKGYPFEVVLSGQERDGVALADQVKSIAWRARGATKKGTVAPEELQLIKAKINVLIG [P0AE70] ?
5.35

What do you have for MIVTIVGWLVLFVFLPNLMIIGTSFLTRDDASFVKMVFTLDNYTRLLDPLYFEVLLHSLNMALIATLACLVLGYPFAWFLAKLPHKVRPLLLFLLIVPFWTNSLIRIYGLKIFLSTKGYLNEFLLWLGVIDTPIRIMFTPSAVIIGLVYILLPFMVMPLYSSIEKLDKPLLEAARDLGASKLQTFIRIIIPLTMPGIIAGCLLVMLPAMGLFYVSDLMGGAKNLLIGNVIKVQFLNIRDWPFGAATSITLTIVMGLMLLVYWRASRLLNKKVELE [P0AFK4] ?
5.93
